The origin of these recorded values is the supplement of paper PMC3334620.

study-system: Abf1 (UniProt P14164)
Sequence: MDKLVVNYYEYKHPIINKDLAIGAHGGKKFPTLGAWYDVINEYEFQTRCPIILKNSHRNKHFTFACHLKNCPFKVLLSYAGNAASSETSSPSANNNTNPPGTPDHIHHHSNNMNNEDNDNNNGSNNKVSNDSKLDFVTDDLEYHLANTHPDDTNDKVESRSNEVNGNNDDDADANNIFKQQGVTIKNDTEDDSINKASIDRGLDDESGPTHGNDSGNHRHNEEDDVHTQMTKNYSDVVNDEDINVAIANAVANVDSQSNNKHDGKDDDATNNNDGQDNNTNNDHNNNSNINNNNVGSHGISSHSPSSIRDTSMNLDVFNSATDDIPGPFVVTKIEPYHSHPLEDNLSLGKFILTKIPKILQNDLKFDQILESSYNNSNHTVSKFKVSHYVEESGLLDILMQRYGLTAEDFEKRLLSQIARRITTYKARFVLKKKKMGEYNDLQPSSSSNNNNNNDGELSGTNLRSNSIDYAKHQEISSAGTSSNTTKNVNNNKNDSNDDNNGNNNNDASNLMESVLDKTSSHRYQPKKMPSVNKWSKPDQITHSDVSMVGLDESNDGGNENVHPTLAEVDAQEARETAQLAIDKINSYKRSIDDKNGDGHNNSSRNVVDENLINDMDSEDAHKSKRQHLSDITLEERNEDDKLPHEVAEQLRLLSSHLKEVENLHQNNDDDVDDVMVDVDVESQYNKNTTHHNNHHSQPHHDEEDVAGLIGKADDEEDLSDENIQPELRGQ
protocol-summary: PBM E-score (8-mer binding enrichment) (E-score (-0.5 to 0.5)); higher = stronger / more preferred TF binding
experimental-parameters: protein concentration: 200 nM; construct: GST-full length
Over roughly 33,000 sequences, “E-score (-0.5 to 0.5)” has its median near -0.015; the highest 2% begin near 0.3. Many of the other results were omitted from the sample, so the highest values are more common in it than they were.
Measured PBM E-score of individual entries

Reference set (5 entries):
item-sequence: GATGGGAC
experimental-value: -0.154

item-sequence: TATGATCA
experimental-value: 0.309

item-sequence: CAGTCGGG
experimental-value: 0.0146

item-sequence: CCAGTGAG
experimental-value: -0.251

item-sequence: CATCGTCG
experimental-value: 0.231

Problem: API: value(readout=PBM E-score, system=Abf1 (UniProt P14164)) for record `AGGGTGAG`
Result: -0.102

* * *

study-system: Abf1 (UniProt P14164)
Sequence: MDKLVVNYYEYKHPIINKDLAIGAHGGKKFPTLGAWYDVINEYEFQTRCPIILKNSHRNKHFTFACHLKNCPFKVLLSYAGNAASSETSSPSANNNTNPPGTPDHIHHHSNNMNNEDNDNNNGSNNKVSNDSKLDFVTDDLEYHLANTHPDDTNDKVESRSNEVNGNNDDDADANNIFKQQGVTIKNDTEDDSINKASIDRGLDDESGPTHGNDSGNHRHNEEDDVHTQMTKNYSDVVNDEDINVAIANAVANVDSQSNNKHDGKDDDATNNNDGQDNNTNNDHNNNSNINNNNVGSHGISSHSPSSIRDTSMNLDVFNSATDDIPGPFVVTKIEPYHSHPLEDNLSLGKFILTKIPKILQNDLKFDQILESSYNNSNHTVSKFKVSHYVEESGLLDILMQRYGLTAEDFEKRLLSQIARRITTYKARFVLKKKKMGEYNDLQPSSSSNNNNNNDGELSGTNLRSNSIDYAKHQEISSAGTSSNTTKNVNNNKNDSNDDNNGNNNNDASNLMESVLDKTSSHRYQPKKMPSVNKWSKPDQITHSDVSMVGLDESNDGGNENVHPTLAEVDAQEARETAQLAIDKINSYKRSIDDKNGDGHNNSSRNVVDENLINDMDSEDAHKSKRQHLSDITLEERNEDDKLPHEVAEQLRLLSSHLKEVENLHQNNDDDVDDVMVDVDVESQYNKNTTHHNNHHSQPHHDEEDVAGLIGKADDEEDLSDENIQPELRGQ
protocol-summary: PBM E-score (8-mer binding enrichment) (E-score (-0.5 to 0.5)); higher = stronger / more preferred TF binding
experimental-parameters: protein concentration: 200 nM; construct: GST-full length
The full ranking holds about 33,000 sequences; the median of “E-score (-0.5 to 0.5)” is about -0.015, and the highest 2% start at about 0.3. For the sample, the highest values were picked, then their nearest neighbours and some sequences at random.
readout-label: PBM E-score
A bare number is all that is needed in reply.

item-sequence: GTATAAAA
PBM E-score: 0.356
--
item-sequence: ATGATAAG
PBM E-score: 0.291
--
item-sequence: AGATGCAT
PBM E-score: -0.058

Problem: Need PBM E-score, item `GTCTAAAC`
Result: 0.00585

Problem: Quick check: PBM E-score of `TACCAAAA` ?
Result: 0.0276

Problem: Fill in the blank: the reported PBM E-score of `CGGACGCC` is ____.
Result: -0.0127

Problem: Reported PBM E-score, sequence `CATAGAAA` : ____
Result: 0.105

Problem: Find the recorded PBM E-score belonging to `AAGATAAT` and report it.
Result: 0.0926

* * *

Quick reference: PBM E-score of the listed items.
study-system: Abf1 (UniProt P14164)
Sequence: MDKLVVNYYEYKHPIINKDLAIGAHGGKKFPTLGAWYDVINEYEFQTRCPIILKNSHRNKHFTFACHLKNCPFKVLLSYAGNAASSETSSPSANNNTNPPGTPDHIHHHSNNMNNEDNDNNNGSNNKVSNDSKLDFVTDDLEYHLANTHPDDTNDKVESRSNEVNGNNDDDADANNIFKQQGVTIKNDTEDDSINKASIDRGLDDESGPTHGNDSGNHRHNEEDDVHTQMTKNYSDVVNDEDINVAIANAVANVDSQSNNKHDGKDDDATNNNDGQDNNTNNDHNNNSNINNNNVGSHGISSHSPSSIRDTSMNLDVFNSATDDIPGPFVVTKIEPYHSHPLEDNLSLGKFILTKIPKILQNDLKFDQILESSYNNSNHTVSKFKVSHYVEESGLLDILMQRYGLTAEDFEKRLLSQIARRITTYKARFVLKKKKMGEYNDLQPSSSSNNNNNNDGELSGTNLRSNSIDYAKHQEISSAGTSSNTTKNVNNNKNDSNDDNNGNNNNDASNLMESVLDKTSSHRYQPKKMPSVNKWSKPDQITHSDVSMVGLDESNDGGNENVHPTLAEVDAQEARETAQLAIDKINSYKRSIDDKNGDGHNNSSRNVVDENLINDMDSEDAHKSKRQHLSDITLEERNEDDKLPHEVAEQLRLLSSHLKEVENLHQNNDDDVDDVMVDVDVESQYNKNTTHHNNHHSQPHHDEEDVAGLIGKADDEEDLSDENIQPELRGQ
protocol-summary: PBM E-score (8-mer binding enrichment) (E-score (-0.5 to 0.5)); higher = stronger / more preferred TF binding
experimental-parameters: protein concentration: 200 nM; construct: GST-full length
In all, about 33,000 sequences were measured (“E-score (-0.5 to 0.5)”: median about -0.015, highest 2% from about 0.3 on). The sample as a whole holds a higher share of the highest values than the screen did.
Please give only the number in your answer, with no unit.

Use the examples below as a reference point.
item-sequence: CATCCGAC
PBM E-score: 0.151

item-sequence: ACTAAAAG
PBM E-score: 0.0434

item-sequence: AAACGAAA
PBM E-score: 0.159

item-sequence: ACATCAGT
PBM E-score: -0.0164

item-sequence: CGAGGTGA
PBM E-score: 0.129

item-sequence: ACATCACT
PBM E-score: 0.415

item-sequence: CAACCGAG
PBM E-score: -0.0944

item-sequence: ATCACCGC
PBM E-score: 0.311

Now for the sequence whose PBM E-score we want.
Problem: Consider the sequence shown here: `GCGAGAAC` What is its recorded PBM E-score?
Result: -0.095

* * *

study-system: Abf1 (UniProt P14164)
Sequence: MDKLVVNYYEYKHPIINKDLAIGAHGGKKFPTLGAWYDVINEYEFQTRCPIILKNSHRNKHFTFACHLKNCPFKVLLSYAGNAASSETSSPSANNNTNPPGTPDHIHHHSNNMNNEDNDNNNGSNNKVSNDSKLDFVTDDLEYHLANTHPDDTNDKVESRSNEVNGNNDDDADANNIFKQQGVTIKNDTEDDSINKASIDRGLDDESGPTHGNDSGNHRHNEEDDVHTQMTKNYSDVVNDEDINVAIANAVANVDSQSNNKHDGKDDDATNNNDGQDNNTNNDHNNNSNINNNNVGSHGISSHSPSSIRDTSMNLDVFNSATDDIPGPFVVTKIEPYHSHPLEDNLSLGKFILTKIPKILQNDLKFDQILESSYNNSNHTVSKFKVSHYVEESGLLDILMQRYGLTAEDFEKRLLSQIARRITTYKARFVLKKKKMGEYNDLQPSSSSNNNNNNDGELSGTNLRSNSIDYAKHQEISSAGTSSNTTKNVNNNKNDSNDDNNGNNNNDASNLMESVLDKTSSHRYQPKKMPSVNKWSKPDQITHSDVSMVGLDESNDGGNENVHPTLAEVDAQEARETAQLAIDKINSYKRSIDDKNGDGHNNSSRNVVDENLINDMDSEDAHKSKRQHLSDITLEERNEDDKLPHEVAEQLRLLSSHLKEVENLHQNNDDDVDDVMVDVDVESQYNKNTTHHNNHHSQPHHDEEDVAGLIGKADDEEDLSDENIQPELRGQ
protocol-summary: PBM E-score (8-mer binding enrichment) (E-score (-0.5 to 0.5)); higher = stronger / more preferred TF binding
experimental-parameters: protein concentration: 200 nM; construct: GST-full length
In all, about 33,000 sequences were measured (“E-score (-0.5 to 0.5)”: median about -0.015, highest 2% from about 0.3 on). The sample as a whole holds a higher share of the highest values than the screen did.
PBM E-score by entry:
Could you respond with only the numeric value?

# annotated cases, reported PBM E-score shown
item-sequence: AATGACTA
PBM E-score: 0.222
--
item-sequence: CGTACGAA
PBM E-score: 0.447
--
item-sequence: CAGCTCCA
PBM E-score: -0.238

Problem: Could you tell me which PBM E-score is on file for `CTCCGGCC` ?
Result: -0.212

Problem: If you can, please state the reported PBM E-score value of `CACTCGGC` .
Result: -0.0263
